MIC overview
# Test system: Candida albicans
# assay.summary: Antifungal activity against wild type Candida albicans CAI4 assessed as growth inhibition after 24 hrs by NCCLS broth microdilution method
# Format: functional
# test.context: CAI4, 24 h, read-out: MIC100
Numbered stars: 1 amine (or outer) side, 2 acyl side, 3 side chain; on linkers, the order of the positions; unused ones are H or OH. Bridge positions count the residues as written; N and C are the ends. Square brackets hold non-standard residues; d marks the D form. Peptide text beside a SMILES is read from it. * marks the point of attachment. Orn(4R-OH,5R-OH) = O=C([C@H](C[C@@H](O)[C@@H](O)N[*:3])N[*:1])[*:2]; Tetradecanoyl(10R,12S-Me2) = CC[C@H](C)C[C@H](C)CCCCCCCCC(=O)*; hTyr(3S-OH,4S-OH) = N[C@H](C(=O)O)[C@H](O)[C@@H](O)c1ccc(O)cc1; Pro(3S-OH,4S-Me) = C[C@H]1CN[C@H](C(=O)O)[C@H]1O; X1 = CCCCCOc1ccc(-c2cc(-c3ccc(C(=O)*)cc3)no2)cc1; Gln(3R-OH) = NC(=O)C[C@@H](O)[C@H](N)C(=O)O; Pro(3S-OH) = O=C(O)[C@H]1NCC[C@@H]1O; Hyp = O=C(O)[C@@H]1C[C@@H](O)CN1
Answer format: numeric, µg/mL implied, no suffix.

Guide cases for MIC, answers given:
molecule="CCCCCOc1ccc(-c2cc(-c3ccc(C(=O)N[C@H]4C[C@@H](O)[C@@H](O)NC(=O)[C@@H]5[C@@H](O)[C@@H](C)CN5C(=O)[C@H]([C@@H](C)O)NC(=O)[C@H]([C@H](O)[C@@H](O)c5ccc(O)cc5)NC(=O)[C@@H]5C[C@@H](O)CN5C(=O)[C@H]([C@@H](C)O)NC4=O)cc3)no2)cc1 (X1-[Orn(4R-OH,5R-OH)]T[Hyp][hTyr(3S-OH,4S-OH)]T[Pro(3S-OH,4S-Me)]; lactam 1-C)" quantitative_readout=0.5
molecule=CC[C@H](C)C[C@H](C)CCCCCCCCC(=O)N[C@H]1C[C@@H](O)[C@@H](NCCN)NC(=O)[C@@H]2[C@@H](O)CCN2C(=O)[C@H]([C@H](O)CCN)NC(=O)[C@H]([C@H](O)[C@@H](O)c2ccc(O)cc2)NC(=O)[C@@H]2C[C@@H](O)CN2C(=O)[C@H]([C@@H](C)O)NC1=O quantitative_readout=0.125

I'd like to know its MIC. The molecule in question is CCCCCOc1ccc(-c2cc(-c3ccc(C(=O)N[C@H]4C[C@@H](O)[C@@H](O)NC(=O)[C@@H]5[C@@H](O)CCN5C(=O)[C@H]([C@H](O)CC(N)=O)NC(=O)[C@H]([C@H](O)[C@@H](O)c5ccc(O)cc5)NC(=O)[C@@H]5C[C@@H](O)CN5C(=O)[C@H]([C@@H](C)O)NC4=O)cc3)no2)cc1 (X1-[Orn(4R-OH,5R-OH)]T[Hyp][hTyr(3S-OH,4S-OH)][Gln(3R-OH)][Pro(3S-OH)]; lactam 1-C)
0.06

And CC[C@H](C)C[C@H](C)CCCCCCCCC(=O)N[C@H]1C[C@@H](O)[C@@H](O)NC(=O)[C@@H]2[C@@H](O)[C@@H](C)CN2C(=O)[C@H]([C@H](O)CC(N)=O)NC(=O)[C@H]([C@H](O)[C@@H](O)c2ccc(O)cc2)NC(=O)[C@@H]2C[C@@H](O)CN2C(=O)[C@H]([C@@H](C)O)NC1=O ({Tetradecanoyl(10R,12S-Me2)}-[Orn(4R-OH,5R-OH)]T[Hyp][hTyr(3S-OH,4S-OH)][Gln(3R-OH)][Pro(3S-OH,4S-Me)]; lactam 1-C) ?
0.5
